The origin of these recorded values is patent US7875647B2.

testedOn: Cannabinoid-1 receptor (CB1R) (Rattus norvegicus)
Construct: The tissue obtained from the brain of SD rats was homogenized; from tissue; host or cells: brain of SD rats (membrane pellet of the homogenate)
protocolDetails: Cannabinoid-1 receptor (CB1R) binding affinity assay ([3H]CP-55940, rat CB-1 receptor binding protocol)
conditionSummary: brain tissue of SD rats, [3H]CP-55940, 30° C. 60 min; read-out: IC50
parameterMeasured: IC50 (nM)

[
  {
    "compound": "CC(=O)OCc1c(-c2nnc(C(C)(C)C)s2)nn(-c2ccc(Cl)cc2Cl)c1-c1ccc(Cl)cc1",
    "IC50, nM": 16.7
  },
  {
    "compound": "CCCCCn1nnnc1-c1nn(-c2ccc(Cl)cc2Cl)c(-c2ccc(Cl)cc2)c1C",
    "IC50, nM": 184
  },
  {
    "compound": "Cc1c(-c2nnc(C(C)C3CCCC3)o2)nn(-c2ccc(Cl)cc2Cl)c1-c1ccc(Cl)cc1 (centres unmarked)",
    "IC50, nM": 22.2
  },
  {
    "compound": "COCc1c(-c2nnc(C(C)(C)C)s2)nn(-c2ccc(Cl)cc2Cl)c1-c1ccc(Br)cc1",
    "IC50, nM": 8.31
  }
]

P = CCC(C)(C)c1nnc(-c2nn(-c3ccccc3Cl)c(-c3ccc(Br)cc3)c2C)s1
Q = CCCCOC(C)(C)c1nnc(-c2nn(-c3ccc(Cl)cc3Cl)c(-c3ccc(Cl)cc3)c2C)s1
R = COC(C)c1c(-c2nnc(C(C)(C)C)o2)nn(-c2ccc(Cl)cc2Cl)c1-c1ccc(Cl)cc1 (centres unmarked)
S = CCC(C)(C)c1nnc(-c2nn(-c3ccc(Cl)cc3Cl)c(-c3ccc(Cl)cc3)c2Br)o1
Ascending sort, IC50. Sort the labels as requested; that list is your answer.
P, Q, S, R
(P: 8.67 nM, Q: 16.9 nM, S: 27.8 nM, R: 62.7 nM)

###

testedOn: Cannabinoid-1 receptor (CB1R) (Rattus norvegicus)
Construct: The tissue obtained from the brain of SD rats was homogenized; from tissue; host or cells: brain of SD rats (membrane pellet of the homogenate)
protocolDetails: Cannabinoid-1 receptor (CB1R) binding affinity assay ([3H]CP-55940, rat CB-1 receptor binding protocol)
conditionSummary: brain tissue of SD rats, [3H]CP-55940, 30° C. 60 min; read-out: IC50
pIC50: −log10 of the molar value.
parameterMeasured: pIC50

[
  {
    "chemicalString": "CC(C)(C)c1nnc(-c2nn(-c3ccc(Cl)cc3Cl)c(-c3ccc(Cl)cc3)c2Cn2ccnn2)o1",
    "parameterMeasured": "pIC50",
    "recordedResult": 7.89
  }
]

1 = Cc1c(-c2nnc(C3CCC3)s2)nn(-c2ccccc2Cl)c1-c1ccc(Cl)cc1
2 = Cc1c(-c2nc(C3CC3)n(C(C)C)n2)nn(-c2ccc(Cl)cc2Cl)c1-c1ccc(Cl)cc1
3 = FC(F)(F)C1(c2nnc(-c3nn(-c4ccc(Cl)cc4Cl)c(-c4ccc(Cl)cc4)c3Cn3cncn3)s2)CC1
# sort list by recorded pIC50, greatest to least Sort the labels as requested; that list is your answer.
3, 1, 2

###

testedOn: Cannabinoid-1 receptor (CB1R) (Rattus norvegicus)
Construct: The tissue obtained from the brain of SD rats was homogenized; from tissue; host or cells: brain of SD rats (membrane pellet of the homogenate)
protocolDetails: Cannabinoid-1 receptor (CB1R) binding affinity assay ([3H]CP-55940, rat CB-1 receptor binding protocol)
conditionSummary: brain tissue of SD rats, [3H]CP-55940, 30° C. 60 min; read-out: IC50
pIC50: −log10 of the molar value.
parameterMeasured: pIC50

[
  {
    "compound": "CC(O)c1c(-c2nnc(C(C)(C)C)o2)nn(-c2ccc(Cl)cc2Cl)c1-c1ccc(Cl)cc1 (stereo not shown) [Example 207]",
    "pIC50": 8.00
  }
]

A = Cc1c(-c2nnc(C3(c4ccc(F)cc4)CC3)s2)nn(-c2ccc(Cl)cc2Cl)c1-c1ccc(Cl)cc1 [Example 496]
B = Cc1c(-c2nnc(C(C)(C)C3CCCC3)o2)nn(-c2ccc(Cl)cc2Cl)c1-c1ccc(Cl)cc1 [Example 63]
Higher pIC50 between A and B ? Response format: the label of the selected entry.
B
(B: 7.72, A: 7.31)

###

testedOn: Cannabinoid-1 receptor (CB1R) (Rattus norvegicus, UniProt P20272)
Construct: The tissue obtained from the brain of SD rats was homogenized; from tissue; host or cells: brain of SD rats (membrane pellet of the homogenate)
Sequence (P20272 whole entry): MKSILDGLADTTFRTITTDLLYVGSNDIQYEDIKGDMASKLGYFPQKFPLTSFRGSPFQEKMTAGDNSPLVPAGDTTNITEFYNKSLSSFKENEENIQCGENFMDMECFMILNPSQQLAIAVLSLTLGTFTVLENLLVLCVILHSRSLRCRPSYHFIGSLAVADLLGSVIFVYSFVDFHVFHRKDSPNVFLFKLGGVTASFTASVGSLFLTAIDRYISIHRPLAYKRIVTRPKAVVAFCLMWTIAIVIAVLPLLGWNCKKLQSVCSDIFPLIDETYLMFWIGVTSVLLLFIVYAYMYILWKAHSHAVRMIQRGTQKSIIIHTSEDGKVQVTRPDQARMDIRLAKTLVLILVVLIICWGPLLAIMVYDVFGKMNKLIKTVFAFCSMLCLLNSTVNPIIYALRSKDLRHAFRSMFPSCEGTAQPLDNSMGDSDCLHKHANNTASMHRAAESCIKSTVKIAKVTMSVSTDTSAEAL
protocolDetails: Cannabinoid-1 receptor (CB1R) binding affinity assay ([3H]CP-55940, rat CB-1 receptor binding protocol)
conditionSummary: brain tissue of SD rats, [3H]CP-55940, 30° C. 60 min; read-out: IC50
pIC50: −log10 of the molar value.
parameterMeasured: pIC50

[
  {
    "compound": "Cc1c(-c2nnc(-c3cccs3)s2)nn(-c2ccc(Cl)cc2Cl)c1-c1ccc(Cl)cc1 [Example 351]",
    "recordedResult": 7.20
  },
  {
    "compound": "CCc1c(-c2nnc(C3(c4ccc(OC)cc4)CC3)o2)nn(-c2ccc(Cl)cc2Cl)c1-c1ccc(Br)cc1 [Example 175]",
    "recordedResult": 8.24
  },
  {
    "compound": "Cc1c(-c2nnc(C3CCC3)s2)nn(-c2ccc(Cl)cc2Cl)c1-c1ccc(Cl)cc1 [Example 345]",
    "recordedResult": 8.39
  },
  {
    "compound": "Cc1c(-c2nnc(C(C)C3CCCCC3)s2)nn(-c2ccc(Cl)cc2Cl)c1-c1ccc(Cl)cc1 (stereo not drawn) [Example 392]",
    "recordedResult": 7.33
  },
  {
    "compound": "CC(F)c1c(-c2nnc(C3(c4ccc(Cl)cc4)CC3)o2)nn(-c2ccc(Cl)cc2Cl)c1-c1ccc(Cl)cc1 (stereo not drawn) [Example 212]",
    "recordedResult": 8.30
  }
]

P = CCCCC(C)c1nnc(-c2nn(-c3ccc(Cl)cc3Cl)c(-c3ccc(Br)cc3)c2CC)s1 (stereo not drawn) [Example 388]
Q = Cc1c(-c2nnnn2C2CCC2)nn(-c2ccc(Cl)cc2Cl)c1-c1ccc(Cl)cc1 [Example 600]
Please indicate which item has the smaller measured pIC50: P versus Q Response format: the label of the selected entry.
Q
(Q: 7.37, P: 8.15)

###

testedOn: Cannabinoid-1 receptor (CB1R) (Rattus norvegicus, UniProt P20272)
Construct: The tissue obtained from the brain of SD rats was homogenized; from tissue; host or cells: brain of SD rats (membrane pellet of the homogenate)
protocolDetails: Cannabinoid-1 receptor (CB1R) binding affinity assay ([3H]CP-55940, rat CB-1 receptor binding protocol)
conditionSummary: IC50(nM), brain tissue of SD rats, [3H]CP-55940, 30° C. 60 min
Protocol: The tissue obtained from the brain of SD rats was homogenized with a Dounce homogenate system in TME (50 mM Tris, 3 mM MgCl2 and 1 mM EDTA, pH 7.4) at 4° C., and the homogenate was centrifuged at 48,000 g for 30 min. at 4° C. […] The tissue concentrations were determined by Bradford protein analysis, and 148 μl of brain tissue of the required concentration was added to the plate. […]
parameterMeasured: IC50 (nM)
State just the number; it will be interpreted in nM.

Worked set:
[
  {
    "chemicalString": "Cc1c(-c2nc3c(o2)CCCC3)nn(-c2ccc(Cl)cc2Cl)c1-c1ccc(Cl)cc1",
    "recordedResult": 44.2
  },
  {
    "chemicalString": "Cc1c(-c2nnc(C(C)(C)OCc3cccc(Cl)c3)o2)nn(-c2ccc(Cl)cc2Cl)c1-c1ccc(Cl)cc1",
    "recordedResult": 11.1
  }
]

What does the record list as IC50 for "C=Cc1c(-c2nnc(C(C)(C)C)o2)nn(-c2ccc(Cl)cc2Cl)c1-c1ccc(Br)cc1" ?
16.6

How about this compound: "CCCCCOC(C)(C)c1nnc(-c2nn(-c3ccc(Cl)cc3Cl)c(-c3ccc(Cl)cc3)c2C)o1"
15.1

###

testedOn: Cannabinoid-1 receptor (CB1R) (Rattus norvegicus, UniProt P20272)
Construct: The tissue obtained from the brain of SD rats was homogenized; from tissue; host or cells: brain of SD rats (membrane pellet of the homogenate)
protocolDetails: Cannabinoid-1 receptor (CB1R) binding affinity assay ([3H]CP-55940, rat CB-1 receptor binding protocol)
conditionSummary: brain tissue of SD rats, [3H]CP-55940, 30° C. 60 min; read-out: IC50
parameterMeasured: IC50 (nM)

Worked set:
[
  {
    "molecule": "CCc1c(-c2nnc(C3(c4ccc(Cl)cc4)CC3)o2)nn(-c2ccccc2Cl)c1-c1ccc(Cl)cc1",
    "recordedResult": 2.16
  },
  {
    "molecule": "CCC(C)c1nnc(-c2nn(-c3ccc(Cl)cc3Cl)c(-c3ccc(Cl)cc3)c2Br)o1 (stereo not drawn)",
    "recordedResult": 21.3
  },
  {
    "molecule": "Cc1c(-c2nnc(C3(c4ccccc4)CC3)o2)nn(-c2ccc(Cl)cc2Cl)c1-c1ccc(Cl)cc1",
    "recordedResult": 11
  },
  {
    "molecule": "CC(=O)OCc1c(-c2nnc(C(C)(C)C)s2)nn(-c2ccc(Cl)cc2Cl)c1-c1ccc(Br)cc1",
    "recordedResult": 9.01
  }
]

a = CC(=O)C1(c2nnc(-c3nn(-c4ccc(Cl)cc4Cl)c(-c4ccc(Cl)cc4)c3C)o2)CC1
b = Cc1c(-c2ncc(C3CCCC3)o2)nn(-c2ccc(Cl)cc2Cl)c1-c1ccc(Cl)cc1
Please indicate which item has the smaller measured IC50: a versus b Response format: the label of the selected entry.
a

P = Cc1c(-c2nnc(CC3CCCCC3)o2)nn(-c2ccc(Cl)cc2Cl)c1-c1ccc(Cl)cc1
Q = Cc1c(-c2nnc(C(C)(C)CO)o2)nn(-c2ccc(Cl)cc2Cl)c1-c1ccc(Cl)cc1
R = CCc1c(-c2nnc(C3CCCCCC3)s2)nn(-c2ccc(Cl)cc2Cl)c1-c1ccc(Br)cc1
# sort list by recorded IC50, greatest to least Sort the labels as requested; that list is your answer.
Q, P, R

1 = C=Cc1c(-c2nnc(C(C)(C)C)s2)nn(-c2ccc(Cl)cc2Cl)c1-c1ccc(Br)cc1
2 = CCc1c(-c2nnc(C3(C#N)CC3)o2)nn(-c2ccc(Cl)cc2Cl)c1-c1ccc(Cl)cc1
Please indicate which item has the smaller measured IC50: 1 versus 2 Response format: the label of the selected entry.
1

P = CC(=O)c1c(-c2nnc(C(C)(C)C)s2)nn(-c2ccc(Cl)cc2Cl)c1-c1ccc(Br)cc1
Q = CCCCC(O)c1nnc(-c2nn(-c3ccc(Cl)cc3Cl)c(-c3ccc(Cl)cc3)c2C)o1 (stereo not drawn)
Please indicate which item has the smaller measured IC50: P versus Q Response format: the label of the selected entry.
P
